Reference for the values: ChEMBL document CHEMBL2413072

Would you kindly list growth at 100 µM for each of these compounds?
# Test system: T47D
# test: Growth inhibition of human T47D cells assessed as cell growth at 10^-4 M by sulforhodamine B assay
# Type: functional
# details: read-out: Activity
Numbers only, in %.

Observe how each entry below is paired with its result.
C/C=C(/C)C(=O)O[C@@H]1CC(C)(C)C[C@H]2C3=CC[C@@H]4[C@@]5(C)CCC(=O)C(C)(C)[C@@H]5CC[C@@]4(C)[C@]3(C)CC[C@@]12C(=O)O = 23
CC1(C)C[C@@H](O)[C@]2(C(=O)O)CC[C@]3(C)C(=CC[C@@H]4[C@@]5(C)C/C(=C\C=C\c6ccccc6)C(=O)C(C)(C)[C@@H]5CC[C@]43C)[C@@H]2C1 = -45
CC(C)=CC(=O)O[C@@H]1CC(C)(C)C[C@H]2C3=CC[C@@H]4[C@@]5(C)CC[C@H](O)C(C)(C)[C@@H]5CC[C@@]4(C)[C@]3(C)CC[C@@]12C(=O)O = -17
C/C=C(/C)C(=O)O[C@@H]1CC(C)(C)C[C@H]2C3=CC[C@@H]4[C@@]5(C)CC[C@H](O)C(C)(C)[C@@H]5CC[C@@]4(C)[C@]3(C)CC[C@@]12C(=O)O = -36

The compound listed as CC(C)=CC(=O)O[C@@H]1CC(C)(C)C[C@H]2C3=CC[C@@H]4[C@@]5(C)CCC(=O)C(C)(C)[C@@H]5CC[C@@]4(C)[C@]3(C)CC[C@@]12C(=O)O has a reported growth at 100 µM of 23
